Assay: ATG_M_06_CIS: Attagene CIS-FACTORIAL HepG2 Assay for M06 Transcription Factor (Internal Marker) (AID 2282950)
Conditions: HepG2 Attagene CIS-FACTORIAL M06 internal marker reporter; actives raise or lower the signal
The source made the active and inactive calls. How the source made its calls: active means hit-call score of the fitted dose curve at least 0.9, where 1 is the maximum; inactive means score below 0.9.
Labels: 1.0 = active, 0.0 = inactive

[[record]]
compound = "Cc1ccc(O)cc1C"
class_assignment = 0.0

[[record]]
compound = "CNC(=O)Oc1ccc(N(C)C)c(C)c1"
class_assignment = 0.0

[[record]]
compound = "COP(=O)(CCC(=O)NCO)OC"
class_assignment = 0.0

[[record]]
compound = "CC(=O)CCc1ccc2c(c1)OCO2"
class_assignment = 0.0

[[record]]
compound = "O=C(O)CF"
class_assignment = 0.0

[[record]]
compound = "CC(C)Nc1ccc(Nc2ccccc2)cc1"
class_assignment = 0.0

[[record]]
compound = "CCCCN(CCCC)SN(C)C(=O)Oc1cccc2c1OC(C)(C)C2"
class_assignment = 0.0

[[record]]
compound = "CC(Cl)CN(C)C (stereo unspecified)"
class_assignment = 0.0

[[record]]
compound = "O=C(O)C(Cl)Cl"
class_assignment = 0.0

[[record]]
compound = "CC(=O)c1ccc(-c2ccccc2)cc1"
class_assignment = 0.0

[[record]]
compound = "CC(O)C#N (stereo unspecified)"
class_assignment = 0.0

[[record]]
compound = "O=C(O)C(F)(OC(F)(F)C(F)(F)C(F)(F)F)C(F)(F)F (stereo unspecified)"
class_assignment = 0.0

[[record]]
compound = "O=c1[nH]c2ccccc2c(=O)o1"
class_assignment = 0.0

[[record]]
compound = "C=CC(=O)OCC(F)(F)C(F)F"
class_assignment = 0.0

[[record]]
compound = "CCCCC(CC)COP(=O)(Oc1ccccc1)Oc1ccccc1 (stereo unspecified)"
class_assignment = 0.0

[[record]]
compound = "COC(=O)C(F)(F)C(F)(F)OC(F)(C(F)(F)F)C(F)(F)OC(F)=C(F)F (stereo unspecified)"
class_assignment = 0.0

[[record]]
compound = "c1ccc2c(c1)sc1ccccc12"
class_assignment = 0.0

[[record]]
compound = "CCCCOCCOP(=O)(OCCOCCCC)OCCOCCCC"
class_assignment = 0.0

[[record]]
compound = "O=P(Oc1ccccc1)(Oc1ccccc1)Oc1ccccc1"
class_assignment = 0.0

[[record]]
compound = "Cc1cccc(N)c1"
class_assignment = 0.0

[[record]]
compound = "CCOP(=S)(OCC)SCSc1ccc(Cl)cc1"
class_assignment = 0.0

[[record]]
compound = "OCC(F)(F)OC(F)(F)C(F)(F)OC(F)(F)CO"
class_assignment = 0.0

[[record]]
compound = "O=[N+]([O-])c1ccc(Cl)c(Cl)c1"
class_assignment = 0.0

[[record]]
compound = "N#Cc1cc([N+](=O)[O-])ccc1N"
class_assignment = 0.0

[[record]]
compound = "Cn1[nH]nnc1=S"
class_assignment = 0.0

[[record]]
compound = "COC(N)=O"
class_assignment = 0.0

[[record]]
compound = "O=S1(=O)OCC2C(CO1)C1(Cl)C(Cl)=C(Cl)C2(Cl)C1(Cl)Cl (stereo unspecified)"
class_assignment = 0.0

[[record]]
compound = "O=C(O)C1C(C(=O)O)C2(Cl)C(Cl)=C(Cl)C1(Cl)C2(Cl)Cl (stereo unspecified)"
class_assignment = 0.0

[[record]]
compound = "CC(O)C(F)(F)C(F)(F)F (stereo unspecified)"
class_assignment = 0.0

[[record]]
compound = "c1ccc2c(c1)Nc1ccccc1S2"
class_assignment = 0.0

[[record]]
compound = "CC(Cl)(Cl)C(=O)O"
class_assignment = 0.0

[[record]]
compound = "CCCCc1ccccc1"
class_assignment = 0.0

[[record]]
compound = "N#Cc1ccc(O)cc1"
class_assignment = 0.0

[[record]]
compound = "CCCCCCCc1ccc(O)cc1"
class_assignment = 0.0

[[record]]
compound = "c1nc[nH]n1"
class_assignment = 0.0

[[record]]
compound = "N#Cc1c(-c2ccc(Cl)cc2)[nH]c(C(F)(F)F)c1Br"
class_assignment = 0.0

[[record]]
compound = "O=c1ssc(Cl)c1Cl"
class_assignment = 0.0

[[record]]
compound = "Cc1cc(C)c(C(=O)P(=O)(c2ccccc2)c2ccccc2)c(C)c1"
class_assignment = 1.0

[[record]]
compound = "O=C(O)C(F)(F)OC(F)(F)C(F)(F)OC(F)(F)C(=O)O"
class_assignment = 0.0

[[record]]
compound = "N#C/C=C/c1ccccc1"
class_assignment = 0.0

[[record]]
compound = "C=C(C)C(=O)OCC1CO1 (stereo unspecified)"
class_assignment = 0.0

[[record]]
compound = "CCC1(c2ccccc2)C(=O)N=C(O)NC1=O (stereo unspecified)"
class_assignment = 0.0

[[record]]
compound = "CCNc1nc(Cl)nc(NC(C)(C)C)n1"
class_assignment = 0.0

[[record]]
compound = "CC1(C)CN=C(NN=C(/C=C/c2ccc(C(F)(F)F)cc2)/C=C/c2ccc(C(F)(F)F)cc2)NC1"
class_assignment = 0.0

[[record]]
compound = "CC(C)(C)c1ccccc1OP(=O)(Oc1ccccc1)Oc1ccccc1"
class_assignment = 0.0

[[record]]
compound = "O=[N+]([O-])c1ccccc1"
class_assignment = 0.0

[[record]]
compound = "O=NN1CCCC1"
class_assignment = 0.0

[[record]]
compound = "CCOC(=O)c1ccccc1N"
class_assignment = 0.0

[[record]]
compound = "CCCN(CCC)c1c([N+](=O)[O-])cc(C(C)C)cc1[N+](=O)[O-]"
class_assignment = 0.0

[[record]]
compound = "CC1=C(C(=O)Nc2ccccc2)S(=O)(=O)CCO1"
class_assignment = 0.0

[[record]]
compound = "NC(=O)C(F)(F)C(F)(F)F"
class_assignment = 0.0

[[record]]
compound = "O=[N+]([O-])c1cc(Cl)ccc1Cl"
class_assignment = 0.0

[[record]]
compound = "ClC(Cl)=C(c1ccc(Cl)cc1)c1ccccc1Cl"
class_assignment = 0.0

[[record]]
compound = "CCOP(=O)(O)C(N)=O"
class_assignment = 0.0

[[record]]
compound = "CCN(CC)c1ccccc1"
class_assignment = 0.0

[[record]]
compound = "Cc1c([N+](=O)[O-])cc2c(c1[N+](=O)[O-])C(C)(C)CC2(C)C"
class_assignment = 0.0

[[record]]
compound = "CCCCN(CCCC)N=O"
class_assignment = 0.0

[[record]]
compound = "CC(Cc1ccc(OCC(=O)O)cc1)NCC(O)c1csc(C(F)(F)F)n1 (stereo unspecified)"
class_assignment = 0.0

[[record]]
compound = "Nc1ccc2ccccc2c1"
class_assignment = 0.0

[[record]]
compound = "Oc1ccc(I)cc1"
class_assignment = 0.0

[[record]]
compound = "Nc1cc2c3c(c1)C(c1ccccc1)=N[C@@H](NC(=O)c1cccnc1)C(=O)N3CC2"
class_assignment = 0.0


====

Read-out: TIMP metallopeptidase inhibitor 2 (TIMP2), TIMP2 (gene 7077)
Experiment: BSK_KF3CT_TIMP2: BioMAP Diversity Plus: KF3CT Assay for TIMP metallopeptidase inhibitor 2 (TIMP2) Biomarker Activity (AID 2283071)
Conditions: primary human keratinocytes with fibroblasts; actives raise or lower the signal
Activity calls are given as the source filed them. The calls were made as follows: active = hit-call score of the fitted dose curve at least 0.9, where 1 is the maximum; inactive = score below 0.9.
Labels: 1 for active, 0 for inactive

[[record]]
compound = "Nc1ccc2ccccc2c1"
class_assignment = 0

[[record]]
compound = "O=P1(N(CCCl)CCCl)NCCCO1 (stereo not given)"
class_assignment = 0

[[record]]
compound = "CCOP(=S)(S)OCC"
class_assignment = 0

[[record]]
compound = "CCCCN(CCCC)N=O"
class_assignment = 0

[[record]]
compound = "[N-]=[N+]=[N-]"
class_assignment = 0

[[record]]
compound = "O=C(O)C(F)(F)OC(F)(F)C(F)(F)OC(F)(F)C(=O)O"
class_assignment = 0

[[record]]
compound = "O=c1ssc(Cl)c1Cl"
class_assignment = 1

[[record]]
compound = "CCN(CC)c1ccccc1"
class_assignment = 0

[[record]]
compound = "CCOC(=O)c1ccccc1C(=O)OCC"
class_assignment = 0

[[record]]
compound = "CCCCC(CC)COP(=O)(Oc1ccccc1)Oc1ccccc1 (stereo not given)"
class_assignment = 1

[[record]]
compound = "COC(=O)C(F)(F)C(F)(F)OC(F)(C(F)(F)F)C(F)(F)OC(F)=C(F)F (stereo not given)"
class_assignment = 0

[[record]]
compound = "CCOP(=S)(Oc1ccc([N+](=O)[O-])cc1)c1ccccc1 (stereo not given)"
class_assignment = 0

[[record]]
compound = "O=P(OCC(Br)CBr)(OCC(Br)CBr)OCC(Br)CBr (stereo not given)"
class_assignment = 0

[[record]]
compound = "CCCN(CCC)c1c([N+](=O)[O-])cc(C(C)C)cc1[N+](=O)[O-]"
class_assignment = 0

[[record]]
compound = "CCCCc1ccccc1"
class_assignment = 0

[[record]]
compound = "CN(C)C(=O)Cl"
class_assignment = 0

[[record]]
compound = "O=S(=O)(F)C(F)(F)C(F)(F)C(F)(F)C(F)(F)C(F)(F)C(F)(F)C(F)(F)C(F)(F)F"
class_assignment = 0

[[record]]
compound = "ClC1=C(Cl)C2(Cl)C3C(Cl)C(Cl)CC3C1(Cl)C2(Cl)Cl (stereo not given)"
class_assignment = 1

[[record]]
compound = "ClC(Cl)(Cl)c1ccccc1"
class_assignment = 0

[[record]]
compound = "c1ccc(OP(Oc2ccccc2)Oc2ccccc2)cc1"
class_assignment = 0

[[record]]
compound = "COP(=O)(O)OC"
class_assignment = 0

[[record]]
compound = "C=CC(=O)OCC(F)(F)C(F)F"
class_assignment = 0

[[record]]
compound = "Cc1ccc([N+](=O)[O-])cc1C"
class_assignment = 0

[[record]]
compound = "COP(=O)(CCC(=O)NCO)OC"
class_assignment = 0

[[record]]
compound = "CCOS(=O)(=O)OCC"
class_assignment = 0

[[record]]
compound = "CSC(C)(C)C=NO"
class_assignment = 0

[[record]]
compound = "Cc1ccc2c(c1N)C(=O)c1ccccc1C2=O"
class_assignment = 1

[[record]]
compound = "CCCCC(CC)COC(=O)c1c(Br)c(Br)c(Br)c(Br)c1C(=O)OCC(CC)CCCC (stereo not given)"
class_assignment = 0

[[record]]
compound = "Nc1ccc([N+](=O)[O-])cc1Cl"
class_assignment = 0

[[record]]
compound = "O=C(O)C(Cl)Cl"
class_assignment = 0

